Test: NCI Yeast Anticancer Drug Screen. Data for the sgs1 mgt1 strain (AID 161);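 note: 0% = growth of cultures given vehicle only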
Conditions: S. cerevisiae sgs1 mgt1 strain, at 50.0 µM, hits give high values
The panel holds about 79,000 compounds, 15% with a hit somewhere; the sample as a whole holds those more often.
Readout: growth inhibition (%)
Number only, in %; omit the unit.

Known growth inhibition results, listed for orientation:
CCOC(=O)c1[nH]c(C)c(C(=O)O)c1C: 0.2
CC1CC(O)C2C3(C)CCCC2(COC3=O)C12CCC1(CCOC1=O)O2 (centres undefined): 18.3
COC(=O)/C=C1\Sc2cc(F)ccc2NC1=O: 13.9

Per the records, this compound ( CCOC(=O)C(C#N)Cc1ccccc1 (centres undefined) ) has growth inhibition equal to -3.85

The value of growth inhibition measured for the compound `CC1(C)N=C(N)N=C(N)N1c1cccc(Br)c1` turned out to be -13.1

Lab note: measured growth inhibition of `CCOC(=O)CCCC(=O)OCC` was 1.65

The reported value for `O=S(=O)(O)c1cc(O)c2c(N=Cc3ccccc3O)c(S(=O)(=O)O)ccc2c1` in terms of growth inhibition is 6.55

Short answer for `COc1ccc(C)cc1OC` : growth inhibition was 1.3

Please fill in: growth inhibition reported for `COc1cc(C(=O)N/N=C/c2cccc([N+](=O)[O-])c2)cc(OC)c1OC` = -41.9

For this compound ( COc1ccc(C2OC(N)=C(O)C2=O)cc1OC (centres undefined) ), measured growth inhibition is -14.4

What the record says about `Cc1cc(NC(=O)CSCC(=O)O)no1` : growth inhibition is -2.45

Data point: `CC(=O)c1ccc(C(C)(C)C)cc1` ; growth inhibition = -12.9

// growth inhibition value for `O=C(Nc1ccccc1C(=O)NCC1CC1)c1cccs1` : 3.4

Recorded growth inhibition (compound `CC(=O)c1ccc2c(ccc3ccccc32)c1` ): -12.6

Lab book: growth inhibition of `Cc1ccc(C(=O)c2ccccc2)c(C)c1` noted as 0.6
